Entries annotated with measured Ki
Target: Estrogen receptor (Homo sapiens, UniProt P03372)
Sequence (P03372 whole entry): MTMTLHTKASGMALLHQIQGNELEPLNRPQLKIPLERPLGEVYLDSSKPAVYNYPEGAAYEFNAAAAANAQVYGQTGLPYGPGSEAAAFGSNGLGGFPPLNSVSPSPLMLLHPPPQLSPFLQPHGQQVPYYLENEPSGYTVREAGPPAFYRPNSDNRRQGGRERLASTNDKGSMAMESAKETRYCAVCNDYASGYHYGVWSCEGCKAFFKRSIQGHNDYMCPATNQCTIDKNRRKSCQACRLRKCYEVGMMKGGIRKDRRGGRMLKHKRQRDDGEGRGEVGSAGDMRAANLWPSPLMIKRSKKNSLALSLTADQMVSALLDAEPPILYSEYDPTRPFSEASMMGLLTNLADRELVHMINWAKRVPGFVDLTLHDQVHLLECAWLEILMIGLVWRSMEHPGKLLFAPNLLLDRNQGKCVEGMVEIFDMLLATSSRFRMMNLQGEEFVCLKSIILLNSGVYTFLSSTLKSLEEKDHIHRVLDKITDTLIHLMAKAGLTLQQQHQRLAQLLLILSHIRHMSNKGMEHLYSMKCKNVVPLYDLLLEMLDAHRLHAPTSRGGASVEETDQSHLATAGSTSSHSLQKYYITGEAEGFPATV
Return type: number; implicit unit nM.

Previously resolved entries follow.
given_smiles=CCOCCN(CCOCC)c1cc(-c2ccccc2)cc(-c2ccc(O)c(C)c2)n1 quantity=Ki result_value=2000
given_smiles=CCCN(Cc1ccccn1)c1cc(-c2ccccc2)cc(-c2ccc(O)cc2)n1 quantity=Ki result_value=180
given_smiles=CC(C)CN(C)c1cc(-c2ccccc2)cc(-c2ccc(O)cc2)n1 quantity=Ki result_value=620
given_smiles=CN(CCc1ccccc1)c1cc(-c2ccccc2)cc(-c2ccc(O)cc2)n1 quantity=Ki result_value=490

Q. Kindly state the measured Ki obtained for Cc1ccccc1-c1cc(-c2ccc(O)cc2)nc(N(C)CCc2ccccc2)c1 with Estrogen receptor (Homo sapiens, UniProt P03372).
A. 650
